The measured values listed here are drawn from PubChem BioAssay AID330.

tested on: P388 leukemia ip, CD2F1 mice, survival T/C; assay: NCI In Vivo Anticancer Drug Screen. Data for tumor model P388 Leukemia (intraperitoneal) in CD2F1 (CDF1) mice; conditions: endpoint: median survival time; dose: 12.5 mg/kg/injection; schedule: Q01DX009 (ip); vehicle: saline with Tween-80; higher = longer survival
Toxic doses and inconclusive results are not listed.
readoutKind: T/C

# compound, system, readoutKind, resultValue
rows = [
    ("N#Cc1nccnc1C#N", "P388 leukemia ip, CD2F1 mice, survival T/C", "T/C", "86 % of control"),
    ("O=C(O)CCCc1cc(I)c(N(CCCl)CCCl)c(I)c1", "P388 leukemia ip, CD2F1 mice, survival T/C", "T/C", "121 % of control"),
    ("CCN(CC)Cc1cc2[nH]c3c4ccc(Cl)cc4ncc3c2cc1OC", "P388 leukemia ip, CD2F1 mice, survival T/C", "T/C", "100 % of control"),
    ("NC(CSP(=O)(O)O)=NCC12CC3CC(CC(C3)C1)C2", "P388 leukemia ip, CD2F1 mice, survival T/C", "T/C", "110 % of control"),
    ("CC1(C)C(/C=C\\c2ccc(O)cc2)=Nc2ccccc21", "P388 leukemia ip, CD2F1 mice, survival T/C", "T/C", "108 % of control"),
    ("Clc1ccc2nc(CI)c(CI)nc2c1", "P388 leukemia ip, CD2F1 mice, survival T/C", "T/C", "100 % of control"),
    ("C=CC[N+](CCO)(CCO)CCCCCCCCCCCCCCCCCC", "P388 leukemia ip, CD2F1 mice, survival T/C", "T/C", "108 % of control"),
    ("O=C1NNCc2c1oc1ccccc21", "P388 leukemia ip, CD2F1 mice, survival T/C", "T/C", "92 % of control"),
    ("O=C(Oc1cc([N+](=O)[O-])cc([N+](=O)[O-])c1)C(c1ccccc1)c1ccccc1", "P388 leukemia ip, CD2F1 mice, survival T/C", "T/C", "106 % of control"),
    ("CCCOP(=S)(N1CC1(C)C)N1CC1(C)C (configuration not stated)", "P388 leukemia ip, CD2F1 mice, survival T/C", "T/C", "104 % of control"),
    ("Cc1cc(-c2ccc(N=Nc3c(C)nn(-c4ccc(S(=O)(=O)O)cc4)c3O)c(C)c2)ccc1N=Nc1ccc(O)c(C(=O)O)c1", "P388 leukemia ip, CD2F1 mice, survival T/C", "T/C", "101 % of control"),
    ("O=C1C(=O)C(Cl)=C(Cl)C(Cl)=C1Cl", "P388 leukemia ip, CD2F1 mice, survival T/C", "T/C", "93 % of control"),
]
